- Tested on: RT-112
- ASSAY_REMARKS: Cellular Proliferation Assay (Cell Counting Kit-8), RT-112
- Assay type: cell-based
- MEASUREMENT_PARAMETERS: Homo sapiens, RT-112 cells, 72 hours
Give measured pIC50 for each item. Keep answers brief.
Answers are plain numbers, as −log10 of the molar value.

Take a look at these entries with their results.
1. CNC(=O)c1cc(CCc2cnc(Nc3cn[nH]c3)nc2)c(F)c(OC)c1: 6.34
2. CNC(=O)c1cc(COc2cnc(Nc3ccc(N4C[C@@H](C)N[C@@H](C)C4)c(C)c3)nc2)c(Cl)c(OC)c1: 7.80
3. CNC(=O)c1cc(CCc2cnc(Nc3cnn(CCOC)c3)nc2)c(Cl)c(OC)c1: 7.18
4. CNC(=O)c1cc(CCc2cnc(Nc3cnn(C[C@H](C)O)c3)nc2)c(F)c(OC)c1: 6.98
5. CNC(=O)c1cc(CCc2cnc(Nc3ccc(N4CCOCC4)cc3)nc2)c(Cl)c(OC)c1: 7.59
6. CNC(=O)c1cc(CCc2cnc(Nc3cnn(CCCN4CCCC4)c3)nc2)c(F)c(OC)c1: 6.69
7. CNC(=O)c1cc(COc2cnc(Nc3ccc(N4C[C@@H](C)N[C@@H](C)C4)nc3)nc2)c(Cl)c(OC)c1: 7.60

According to the records, this molecule `CNC(=O)c1cc(CCc2cnc(Nc3ccc(N4CCNC(C)(C)C4)cc3)nc2)c(Cl)c(OC)c1` displays pIC50 of 7.47
